B1: Zinc finger homeobox protein 3, residues 2643 to 2698; numbered along this chain, Q15911 (parent)
chain: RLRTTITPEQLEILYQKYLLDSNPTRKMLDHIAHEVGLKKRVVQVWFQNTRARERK

Variants of: B1
Assay: abundance fitness (aPCA) (normalised: wild type 0, dead -1); higher = more abundant; growth selection in yeast, the domain comes from the species named
Details: Homo sapiens
Short version: abundance fitness at least -0.08 is y, less is n.

# check: abundance fitness of "A33G" is greater than or equal to -0.08 n

# check: abundance fitness of "R1C" is greater than or equal to -0.08 y

# check: abundance fitness of "Q48L" is greater than or equal to -0.08 n

# check: abundance fitness of "D30S" is greater than or equal to -0.08 n

# check: abundance fitness of "R3E" is greater than or equal to -0.08 y

# check: abundance fitness of "L14I" is greater than or equal to -0.08 n

# check: abundance fitness of "I13L" is greater than or equal to -0.08 n

# check: abundance fitness of "F47E" is greater than or equal to -0.08 n
